- ASSAY_DETAILS: Volume of distribution at steady state in Sprague-Dawley rat at 1 mg/kg, iv by LC-MS/MS analysis
- Assay type: ADME, organism-based
- CONDITION_INFO: in vivo, read-out: Vdss
MEASUREMENT_TYPE: Vd (L/kg)
Hi! Could you send only the number? It should be in L/kg, unit omitted.

Request: Input COc1ncc(-c2ccc3ncc(-c4nnc(CCN5CCN(C)CC5)o4)n3c2)cc1NS(=O)(=O)c1ccc(F)cc1F , output reported Vd.
Result: 0.69

* * *

- ASSAY_DETAILS: AUC (0 to infinity) in Sprague-Dawley rat at 5 mg/kg, po by LC-MS/MS analysis
- Type: ADME, organism-based
- Design: dose 5 mg/kg, route oral, time infinity
- CONDITION_INFO: in vivo
MEASUREMENT_TYPE: AUC(0-inf)
Please state the value followed by its unit.

Request: Input COc1ncc(-c2ccc3ncc(-c4nnc(CCN5CCN(C)CC5)o4)n3c2)cc1NS(=O)(=O)c1ccc(F)cc1F , output reported AUC(0-inf).
Result: 3960 ng·h/mL

* * *

- ASSAY_DETAILS: Cmax in Sprague-Dawley rat at 5 mg/kg, po by LC-MS/MS analysis
- Assay type: ADME, organism-based
- Set-up: dose 5 mg/kg, route oral
- CONDITION_INFO: in vivo
MEASUREMENT_TYPE: Cmax

Request: Output Cmax of COc1ncc(-c2ccc3ncc(-c4nnc(CCN5CCN(C)CC5)o4)n3c2)cc1NS(=O)(=O)c1ccc(F)cc1F
Result: 553 ng/mL

* * *

- ASSAY_DETAILS: Clearance in Sprague-Dawley rat at 1 mg/kg, iv by LC-MS/MS analysis
- Format: ADME, organism-based
- CONDITION_INFO: in vivo
MEASUREMENT_TYPE: clearance (mL/min/kg)
Number only, in mL/min/kg; omit the unit.

Request: Note clearance for the molecule shown: COc1ncc(-c2ccc3ncc(-c4nnc(CCN5CCN(C)CC5)o4)n3c2)cc1NS(=O)(=O)c1ccc(F)cc1F
Result: 5.66

* * *

- ASSAY_DETAILS: AUC (0 to infinity) in Sprague-Dawley rat at 1 mg/kg, iv by LC-MS/MS analysis
- Assay type: ADME, organism-based
- Parameters: dose 1 mg/kg, time infinity, route intravenous
- CONDITION_INFO: in vivo
MEASUREMENT_TYPE: AUC(0-inf)

Request: Look up and state reported AUC(0-inf) for COc1ncc(-c2ccc3ncc(-c4nnc(CCN5CCN(C)CC5)o4)n3c2)cc1NS(=O)(=O)c1ccc(F)cc1F
Result: 2960 ng·h/mL

* * *

- ASSAY_DETAILS: Oral bioavailability in Sprague-Dawley rat at 5 mg/kg by LC-MS/MS analysis
- Assay type: ADME, organism-based
- CONDITION_INFO: in vivo
MEASUREMENT_TYPE: bioavailability
Quote the value and follow it with the unit of measurement.

Request: Read off the recorded bioavailability for COc1ncc(-c2ccc3ncc(-c4nnc(CCN5CCN(C)CC5)o4)n3c2)cc1NS(=O)(=O)c1ccc(F)cc1F
Result: 26.8%

* * *

- ASSAY_DETAILS: Half life in Sprague-Dawley rat at 5 mg/kg, po by LC-MS/MS analysis
- Assay type: ADME, organism-based
- CONDITION_INFO: in vivo
MEASUREMENT_TYPE: half-life (h)
Write it as a number; the unit h goes unstated.

Request: Read off the recorded half-life for COc1ncc(-c2ccc3ncc(-c4nnc(CCN5CCN(C)CC5)o4)n3c2)cc1NS(=O)(=O)c1ccc(F)cc1F
Result: 7.94
